# Tested on: Mus musculus
# Protocol description: Tested for anti-apomorphine climbing activity in mouse on sc administration
Friendly reminder: ED50 below 7 mg/kg is 1, at or above is -1.

These solved cases illustrate the format of a correct answer.
| Compound | Answer label |
| --- | --- |
| COc1cc(N)c(Cl)cc1C(=O)NC1CCCN2CCCCC12 (stereo in doubt; 2b) | 1 |
| COc1cc(N)c(Cl)cc1C(=O)NC1CCN2C(C)CCCC2C1 (stereo in doubt; form 2) [BRL-20627] | -1 |
| COc1cc(N)c(Cl)cc1C(=O)NC1CCN2C(C)CCCC2C1 (stereo in doubt; 2f) [BRL-20627] | -1 |
| COc1cc(N)c(Cl)cc1C(=O)NC1CCCN2CCCCC12 (stereo in doubt; 2a) | -1 |
| COc1cc(N)c(Cl)cc1C(=O)NC1CCC2CCCCN2C1 (stereo in doubt; form 1) | -1 |
| COc1cc(N)c(Cl)cc1C(=O)NC1CCN2CCCCC2C1 (stereo in doubt; 2g) | -1 |
| COc1cc(N)c(Cl)cc1C(=O)NC1CCC2CCCCN2C1 (stereo in doubt; 2c) | -1 |

[ask] Record CCN(CC)CCNC(=O)c1cc(Cl)c(N)cc1OC [METOCLOPRAMIDE] : is its ED50 strictly below 7 mg/kg?
[reply] 1

* * *

# System: Rattus norvegicus
# Protocol description: Tested for stimulation of intragastric pressure in rat on sc administration
# Format: functional
Experimental readout: ED50
Just so you know, I need the unit written after the number.

| Compound | System | ED50 |
| --- | --- | --- |
| CCN(CC)CCNC(=O)c1cc(Cl)c(N)cc1OC [METOCLOPRAMIDE] | Rattus norvegicus | 1 mg/kg |

[ask] Look at this compound and give its reported ED50. COc1cc(N)c(Cl)cc1C(=O)NC1CCN2CCCCC2C1 (stereo in doubt; 2g)
[reply] 0.8 mg/kg

[ask] Look at this compound and give its reported ED50. COc1cc(N)c(Cl)cc1C(=O)NC1CCN2C(C)CCCC2C1 (stereo in doubt; form 2)
[reply] 0.8 mg/kg

[ask] Look at this compound and give its reported ED50. COc1cc(N)c(Cl)cc1C(=O)NC1CCN2CCCCC2C1 (stereo in doubt; 2e)
[reply] 4 mg/kg
